Data provenance is ChEMBL document CHEMBL1135657.

target: Amine oxidase [flavin-containing] B (Rattus norvegicus, UniProt P19643); test: In vitro inhibitory concentration against Monoamine oxidase B of rat brain homogenates; value ranges from 4.8-6.9; assay type: tissue-based

[
  {
    "molecule": "C#CCNC(C)Cc1cccc(OC(=O)N(C)C)c1 (stereo unspecified)",
    "IC50 / µM": 5.7
  }
]

====

target: Amine oxidase [flavin-containing] B (Rattus norvegicus, UniProt P19643); assay: In vitro inhibitory concentration against Monoamine oxidase B of rat brain homogenates; value ranges from 22-530; format: tissue-based

[
  {
    "line_notation": "C#CCNCCc1cccc(O)c1",
    "tested_target": "Amine oxidase [flavin-containing] B (Rattus norvegicus, UniProt P19643)",
    "IC50 / µM": 107
  }
]

====

biological target: Acetylcholinesterase (Homo sapiens, UniProt P22303)
Sequence (P22303 whole entry): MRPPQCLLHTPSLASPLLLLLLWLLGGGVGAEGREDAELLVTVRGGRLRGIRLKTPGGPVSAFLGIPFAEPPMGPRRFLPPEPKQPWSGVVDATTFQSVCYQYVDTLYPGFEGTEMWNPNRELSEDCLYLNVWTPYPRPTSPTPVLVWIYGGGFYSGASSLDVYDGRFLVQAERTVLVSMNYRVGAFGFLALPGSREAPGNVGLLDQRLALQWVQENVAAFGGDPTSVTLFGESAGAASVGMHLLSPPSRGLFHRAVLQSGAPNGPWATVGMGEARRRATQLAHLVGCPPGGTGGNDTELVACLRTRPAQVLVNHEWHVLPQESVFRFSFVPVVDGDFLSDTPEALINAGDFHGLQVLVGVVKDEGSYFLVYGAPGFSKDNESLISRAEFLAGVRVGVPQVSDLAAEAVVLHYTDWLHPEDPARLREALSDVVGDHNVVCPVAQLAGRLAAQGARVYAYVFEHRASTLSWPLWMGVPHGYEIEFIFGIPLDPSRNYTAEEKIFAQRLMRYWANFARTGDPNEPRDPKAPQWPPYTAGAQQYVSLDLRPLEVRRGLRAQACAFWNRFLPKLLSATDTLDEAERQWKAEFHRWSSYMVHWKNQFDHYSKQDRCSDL
pIC50: −log10 of the molar value.

[
  {
    "compound": "C#CCNC1CCc2c(Cl)cc(OC(=O)N(C)CC)cc21 (stereo unspecified)",
    "pIC50": 4.59
  }
]

====

target: Acetylcholinesterase (Homo sapiens, UniProt P22303)
pIC50: −log10 of the molar value.

[
  {
    "molecule": "CN(C)C(=O)Oc1ccc2c(c1)CC(N)CC2 (stereo unspecified)",
    "pIC50": 5.49
  }
]

====

biological target: Acetylcholinesterase (Homo sapiens, UniProt P22303); test: In vitro inhibitory concentration against purified Acetylcholinesterase of human erythrocytes
pIC50: −log10 of the molar value.
# reported pIC50; entries follow

[
  {
    "compound": "C#CCN(C)[C@@H]1CCc2ccc(OC(=O)N(C)CC)cc21",
    "pIC50": 2.92
  },
  {
    "compound": "C#CCN(C)C1CCc2cccc(OC(=O)N(C)CCC)c21 (configuration not stated)",
    "pIC50": "< 3.00"
  },
  {
    "compound": "C#CCN(C)C1CCc2ccc(OC(=O)N(C)CCC)cc21 (configuration not stated)",
    "pIC50": "< 3.00"
  },
  {
    "compound": "C#CCN(C)C1CCc2ccc(OC(=O)N(C)CC)cc21 (configuration not stated)",
    "pIC50": "< 2.89"
  },
  {
    "compound": "C#CCNC1CCc2ccc(OC(=S)N(C)CC)cc21 (configuration not stated)",
    "pIC50": "< 3.30"
  },
  {
    "compound": "C#CCNC1CCc2ccc(OC(=S)N(C)C)cc21 (configuration not stated)",
    "pIC50": "< 3.30"
  },
  {
    "compound": "CC(c1cccc(OC(=O)N(C)C)c1)N(C)C (configuration not stated)",
    "pIC50": 7.52
  }
]

====

Target: UniProt:P19643
Sequence (P19643 whole entry): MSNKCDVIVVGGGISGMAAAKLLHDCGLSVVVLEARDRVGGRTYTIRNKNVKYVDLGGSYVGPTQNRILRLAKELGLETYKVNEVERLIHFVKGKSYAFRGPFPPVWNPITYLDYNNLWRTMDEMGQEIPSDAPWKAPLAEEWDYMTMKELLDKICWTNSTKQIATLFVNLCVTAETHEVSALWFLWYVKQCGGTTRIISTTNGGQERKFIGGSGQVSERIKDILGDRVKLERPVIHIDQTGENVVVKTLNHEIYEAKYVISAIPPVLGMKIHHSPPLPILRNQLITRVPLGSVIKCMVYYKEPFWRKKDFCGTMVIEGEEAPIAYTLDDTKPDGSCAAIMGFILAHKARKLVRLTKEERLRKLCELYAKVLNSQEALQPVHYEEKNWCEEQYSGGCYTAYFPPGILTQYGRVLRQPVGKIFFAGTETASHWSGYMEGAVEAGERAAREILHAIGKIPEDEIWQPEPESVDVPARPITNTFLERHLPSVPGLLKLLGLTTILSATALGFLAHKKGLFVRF
Assay: In vitro inhibitory concentration against Monoamine oxidase B of rat brain homogenates; value ranges from 0.19-0.44
Type: tissue-based

[
  {
    "line_notation": "C#CCNCCc1cccc(OC(=O)N(C)CCC)c1",
    "IC50 / µM": 0.29
  }
]

====

target: Amine oxidase [flavin-containing] B (Rattus norvegicus); assay: In vitro inhibitory concentration against Monoamine oxidase B of rat brain homogenates; value ranges from 0.23-0.34; format: tissue-based
metric: IC50 (nM)

[
  {
    "line_notation": "C#CCN(C)[C@@H](C)Cc1cccc(OC(=O)N(C)C2CCCCC2)c1",
    "tested_target": "Amine oxidase [flavin-containing] B (Rattus norvegicus)",
    "readout_number": 280
  }
]

====

target: Acetylcholinesterase (Homo sapiens, UniProt P22303); test: In vitro inhibitory concentration against purified Acetylcholinesterase of human erythrocytes; value ranges from 13.6-198

[
  {
    "compound": "C#CCNC1CCc2ccc(OC(=O)N(C)C3CCCCC3)cc21 (stereo unspecified)",
    "IC50 / µM": 41.2
  }
]

====

molecular target: Amine oxidase [flavin-containing] A (Rattus norvegicus, UniProt P21396); assay: In vitro inhibitory concentration against Monoamine oxidase A of rat brain homogenates; value ranges from 1.8-2.5; type: tissue-based
metric: IC50

[
  {
    "compound": "C#CCNC(C)Cc1cccc(OC(=O)N(C)CC)c1 (stereo unspecified)",
    "tested_target": "Amine oxidase [flavin-containing] A (Rattus norvegicus, UniProt P21396)",
    "result": "2100 nM"
  }
]

====

Target: Amine oxidase [flavin-containing] A (Rattus norvegicus)
Sequence (P21396 whole entry): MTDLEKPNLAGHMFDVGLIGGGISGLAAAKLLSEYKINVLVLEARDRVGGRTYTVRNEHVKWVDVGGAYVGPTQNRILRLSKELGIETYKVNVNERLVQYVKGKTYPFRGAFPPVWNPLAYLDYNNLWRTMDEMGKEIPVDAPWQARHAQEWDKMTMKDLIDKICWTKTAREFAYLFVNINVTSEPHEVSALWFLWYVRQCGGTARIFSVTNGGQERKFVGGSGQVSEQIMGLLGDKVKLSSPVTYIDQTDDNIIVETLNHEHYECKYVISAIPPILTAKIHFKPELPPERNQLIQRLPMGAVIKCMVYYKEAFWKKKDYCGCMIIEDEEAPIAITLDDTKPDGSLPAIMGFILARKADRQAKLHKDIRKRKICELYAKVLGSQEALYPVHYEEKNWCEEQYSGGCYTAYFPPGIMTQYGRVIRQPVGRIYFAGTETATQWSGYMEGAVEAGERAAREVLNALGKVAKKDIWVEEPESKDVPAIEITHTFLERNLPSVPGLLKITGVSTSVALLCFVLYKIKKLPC
Assay: In vitro inhibitory concentration against Monoamine oxidase A of rat brain homogenates; value ranges from 0.72-0.97
Type: tissue-based

[
  {
    "molecule": "C#CCNC1CCc2c(OC(=O)N(C)CC)cccc21 (stereo unspecified)",
    "IC50 [nM]": 830
  }
]

====

molecular target: Acetylcholinesterase (Homo sapiens, UniProt P22303); experiment: In vitro inhibitory concentration against purified Acetylcholinesterase of human erythrocytes; value ranges from 0.012-0.014
pIC50: −log10 of the molar value.

[
  {
    "compound": "CN(C)C(=O)Oc1cccc2c1CCC2N(C)C (stereo unspecified)",
    "pIC50": 7.89
  }
]

====

target: Amine oxidase [flavin-containing] A (Rattus norvegicus, UniProt P21396); assay: biochemical
metric: IC50 (µM)

[
  {
    "line_notation": "C#CCN[C@H]1CCc2ccc(OC(=O)N(C)CC)cc21",
    "readout_number": 550
  }
]

====

target: Amine oxidase [flavin-containing] A (Rattus norvegicus, UniProt P21396); assay: In vitro inhibitory concentration against Monoamine oxidase A of rat brain homogenates; value ranges from 0.28-0.34; format: tissue-based

[
  {
    "line_notation": "C#CCN[C@@H]1CCc2ccc(O)cc21",
    "IC50, µM": 0.3
  }
]

====

target: Amine oxidase [flavin-containing] A (Rattus norvegicus); test: In vitro inhibitory concentration against Monoamine oxidase A of rat brain homogenates; value ranges from 0.22-0.29; type: tissue-based
pIC50: −log10 of the molar value.

[
  {
    "molecule": "C#CCNC1CCc2c(OC(=O)N(C)C)cccc21 (stereo unspecified)",
    "tested_target": "Amine oxidase [flavin-containing] A (Rattus norvegicus)",
    "pIC50": 6.59
  }
]

====

target: Amine oxidase [flavin-containing] A (Rattus norvegicus); experiment: In vitro inhibitory concentration against Monoamine oxidase A of rat brain homogenates; value ranges from 110-520; assay type: tissue-based
pIC50: −log10 of the molar value.
metric: pIC50

[
  {
    "line_notation": "CCCN(C)C(=O)Oc1cccc(CCN)c1",
    "tested_target": "Amine oxidase [flavin-containing] A (Rattus norvegicus)",
    "metric": "pIC50",
    "readout_number": 3.62
  }
]

====

target: Butyrylcholinesterase (Equus caballus, UniProt Q9N1N9); experiment: In vitro inhibitory concentration against Butyrylcholinesterase of horse serum; value ranges from 0.85-1.96
Sequence (Q9N1N9 whole entry): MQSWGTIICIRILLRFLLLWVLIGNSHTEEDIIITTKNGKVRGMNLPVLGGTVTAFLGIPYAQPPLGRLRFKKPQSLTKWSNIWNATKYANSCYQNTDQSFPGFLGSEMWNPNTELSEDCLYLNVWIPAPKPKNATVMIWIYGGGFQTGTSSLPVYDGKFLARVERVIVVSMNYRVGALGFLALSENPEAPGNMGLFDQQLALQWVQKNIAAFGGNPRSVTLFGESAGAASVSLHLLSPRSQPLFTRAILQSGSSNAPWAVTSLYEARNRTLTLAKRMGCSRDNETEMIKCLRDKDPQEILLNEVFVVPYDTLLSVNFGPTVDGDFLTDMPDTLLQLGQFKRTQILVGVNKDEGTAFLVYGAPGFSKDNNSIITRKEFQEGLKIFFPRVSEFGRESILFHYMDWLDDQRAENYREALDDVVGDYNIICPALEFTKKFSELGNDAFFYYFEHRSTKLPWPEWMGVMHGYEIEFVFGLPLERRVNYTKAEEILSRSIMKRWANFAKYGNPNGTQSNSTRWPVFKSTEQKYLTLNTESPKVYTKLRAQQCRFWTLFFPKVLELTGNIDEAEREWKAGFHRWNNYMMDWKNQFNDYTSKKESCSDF

[
  {
    "compound": "CNC1CCc2ccc(OC(=O)N(C)C)cc21 (stereo unspecified)",
    "tested_target": "Butyrylcholinesterase (Equus caballus, UniProt Q9N1N9)",
    "IC50 / nM": 950
  }
]
